Every entry's value here was drawn from ChEMBL document CHEMBL1132976.

molecular target: Serotonin receptor (2b and 2c) (Homo sapiens) (UniProt P41595+P28335); assay: Selectivity index determined from the binding affinities of 5-HT2C and 5-HT2B.; assay type: protein assay
Recorded measurements of Selectivity, one per entry

COMPOUND: COc1cc2c(cc1C(F)(F)F)N(C(=O)Nc1cc3c(c(-c4cccnc4)c1)OCC3)CC2
ASSAYED_TARGET: Serotonin receptor (2b and 2c) (Homo sapiens) (UniProt P41595+P28335)
Selectivity: 16

COMPOUND: COc1cc2c(cc1C(F)(F)F)N(C(=O)Nc1ccc(-c3cccnc3)cc1)CC2
ASSAYED_TARGET: Serotonin receptor (2b and 2c) (Homo sapiens) (UniProt P41595+P28335)
Selectivity: 0.6

COMPOUND: COc1cc2c(cc1C(F)(F)F)N(C(=O)Nc1ccc(Oc3cccnc3)nc1)CC2
ASSAYED_TARGET: Serotonin receptor (2b and 2c) (Homo sapiens) (UniProt P41595+P28335)
Selectivity: 16

COMPOUND: COc1cc2c(cc1C(F)(F)F)N(C(=O)Nc1cncc(-c3ccccc3)c1)CC2
ASSAYED_TARGET: Serotonin receptor (2b and 2c) (Homo sapiens) (UniProt P41595+P28335)
Selectivity: 5

COMPOUND: COc1cc2c(cc1C(F)(F)F)N(C(=O)Nc1cncc(-c3cc(F)cc(F)c3)c1)CC2
ASSAYED_TARGET: Serotonin receptor (2b and 2c) (Homo sapiens) (UniProt P41595+P28335)
Selectivity: 6

COMPOUND: COc1cc2c(cc1C(F)(F)F)N(C(=O)Nc1cccc(-c3cccnc3)c1)CC2
ASSAYED_TARGET: Serotonin receptor (2b and 2c) (Homo sapiens) (UniProt P41595+P28335)
Selectivity: 8

COMPOUND: COc1cc2c(cc1C(F)(F)F)N(C(=O)Nc1cc(F)cc(-c3cccnc3)c1)CC2
ASSAYED_TARGET: Serotonin receptor (2b and 2c) (Homo sapiens) (UniProt P41595+P28335)
Selectivity: 10

COMPOUND: COc1cc2c(cc1C(F)(F)F)N(C(=O)Nc1ccc(C(C)(C)C)c(-c3cccnc3)c1)CC2
ASSAYED_TARGET: Serotonin receptor (2b and 2c) (Homo sapiens) (UniProt P41595+P28335)
Selectivity: 13

COMPOUND: CCc1cc(NC(=O)N2CCc3cc(OC)c(C(F)(F)F)cc32)cc(-c2cccnc2)c1
ASSAYED_TARGET: Serotonin receptor (2b and 2c) (Homo sapiens) (UniProt P41595+P28335)
Selectivity: 16

COMPOUND: COc1cc2c(cc1C(F)(F)F)N(C(=O)Nc1ccc(C)c(-c3cnccc3C)c1)CC2
ASSAYED_TARGET: Serotonin receptor (2b and 2c) (Homo sapiens) (UniProt P41595+P28335)
Selectivity: 12

COMPOUND: COc1ccc(NC(=O)N2CCc3cc(OC)c(C(F)(F)F)cc32)cc1-c1cccnc1
ASSAYED_TARGET: Serotonin receptor (2b and 2c) (Homo sapiens) (UniProt P41595+P28335)
Selectivity: 30

COMPOUND: CSc1cc2c(cc1C(F)(F)F)N(C(=O)Nc1cccc(-c3cccnc3)c1)CC2
ASSAYED_TARGET: Serotonin receptor (2b and 2c) (Homo sapiens) (UniProt P41595+P28335)
Selectivity: 5

COMPOUND: COc1cc2c(cc1C(F)(F)F)N(C(=O)Nc1ccc(C)c(-c3cccnc3)c1)CC2
ASSAYED_TARGET: Serotonin receptor (2b and 2c) (Homo sapiens) (UniProt P41595+P28335)
Selectivity: 5

COMPOUND: COc1cc2c(cc1C(F)(F)F)N(C(=O)Nc1cc(F)c(C)c(-c3cccnc3)c1)CC2
ASSAYED_TARGET: Serotonin receptor (2b and 2c) (Homo sapiens) (UniProt P41595+P28335)
Selectivity: 13

COMPOUND: COc1cc2c(cc1C(F)(F)F)N(C(=O)Nc1cncc(-c3cccnc3)c1)CC2
ASSAYED_TARGET: Serotonin receptor (2b and 2c) (Homo sapiens) (UniProt P41595+P28335)
Selectivity: 12

COMPOUND: COc1cc2c(cc1C(F)(F)F)N(C(=O)Nc1ccc(Cl)c(-c3cccnc3)c1)CC2
ASSAYED_TARGET: Serotonin receptor (2b and 2c) (Homo sapiens) (UniProt P41595+P28335)
Selectivity: 5

COMPOUND: Cc1cc2c(cc1C(F)(F)F)N(C(=O)Nc1ccc(Oc3cccnc3C)nc1)CC2 [SB-243213]
ASSAYED_TARGET: Serotonin receptor (2b and 2c) (Homo sapiens) (UniProt P41595+P28335)
Selectivity: 100

COMPOUND: COc1cc2c(cc1C(F)(F)F)N(C(=O)Nc1cc(Br)cc(-c3cccnc3)c1)CC2
ASSAYED_TARGET: Serotonin receptor (2b and 2c) (Homo sapiens) (UniProt P41595+P28335)
Selectivity: 10

COMPOUND: COc1cc2c(cc1C(F)(F)F)N(C(=O)Nc1cccc(-c3c(C)ccnc3C)c1)CC2
ASSAYED_TARGET: Serotonin receptor (2b and 2c) (Homo sapiens) (UniProt P41595+P28335)
Selectivity: 5
